Origin of the recorded values: paper PMC9319256

molecular target: ΔImpα3, truncated importin α3 lacking the importin β-binding (IBB) domain (human); assay: ITC; PADI4 or peptide (100 µM) in the syringe titrated into importin (10 µM) in the cell; 20 mM Tris pH 7.5, 5 mM TCEP, 150 mM NaCl, 5% glycerol; 25 °C; single-site model
value type: pKd
Please report pKd as the negative decimal logarithm of the molar concentration, giving only the number.

Prompt: What measured pKd goes with Ac-YKLFQEQQNEGHGEALLFEGIKKKKQQKI-NH2 [NLS2-PADI4 peptide] ?
Response: 5.37
